experiment: Solubility at pH 6.5; type: physicochemical; settings: buffer, read-out: Solubility
Would you kindly list solubility for each of these compounds?
Hey, just the number and the unit after it is fine.

Some solved cases for reference:
C=CC[C@@H]1/C=C(\C)C[C@H](C)C[C@H](OC)[C@H]2O[C@@](O)(C(=O)C(=O)N3CCCC[C@H]3C(=O)O[C@H](/C(C)=C/[C@@H]3CC[C@@H](O)[C@H](OC)C3)[C@H](C)[C@@H](O)CC1=O)[C@H](C)C[C@@H]2OC [TACROLIMUS ANHYDROUS]
1 µg/mL
CC[C@@H]1/C=C(\C)C[C@H](C)C[C@H](OC)[C@H]2O[C@@](O)(C(=O)C(=O)N3CCCC[C@H]3C(=O)O[C@H](/C(C)=C/[C@@H]3CC[C@@H](OC)[C@H](O)C3O)[C@H](C)[C@@H](O)CC1=O)[C@H](C)C[C@@H]2OC (stereo partly drawn)
294 µg/mL

Give its solubility value. Item: CC[C@@H]1/C=C(\C)C[C@H](C)C[C@H](OC)[C@H]2O[C@@](O)(C(=O)C(=O)N3CCCC[C@H]3C(=O)O[C@H](/C(C)=C/[C@@H]3C[C@@H](O)[C@@H](O)[C@H](OC)C3)[C@H](C)[C@@H](O)CC1=O)[C@H](C)C[C@@H]2OC
464 µg/mL

The measurements presented in this section are drawn from ChEMBL document CHEMBL1130792.
